# TARGET OR SYSTEM: Alpha-bungarotoxin (Bungarus multicinctus) (UniProt P60615)
# Sequence (P60615 whole entry, looked up): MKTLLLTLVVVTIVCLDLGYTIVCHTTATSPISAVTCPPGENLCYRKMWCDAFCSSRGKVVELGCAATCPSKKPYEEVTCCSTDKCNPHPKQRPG
# ASSAY PROCEDURE: alpha-bungarotoxin binders on microarray, profiling panel, artefact control for SMM control protein annotation, biochemical, small-molecule microarray, Alexa647 label, 635/667 nm fluorescence (AID 1117)
# CONDITION DESCRIPTION: alpha-BTX-A647 binding fluorescence, higher = more signal
Record form. Attribute: composite z-score. Fill in for each entry.
Field format: numeric only.

Looking up `O=C(NN=C1C[C@@H](O)[C@@H](O)[C@@H]2[C@@H]3C(=O)N(C4CCCCC4)C(=O)[C@@H]3CC[C@@H]12)OCc1ccccc1` , I see its composite z-score listed as -0.0382

Memo: COCCNC(=O)OCC1CCCC2(CC(OC(=O)NCc3ccc4c(c3)OCO4)CC(CCC(=O)N[C@@H](C)C(=O)OC)O2)O1 (stereo partly specified) , reported composite z-score: 0.804

Briefly, composite z-score measured for Cc1ccc(S(=O)(=O)NC(CCc2ccccc2)CC(=O)C(C)(C)C)cc1 (stereo unspecified) : 0.369

Lookup result for `CCN1C(=O)[C@H]2[C@H]3[C@H](O)[C@H](O)CC(=NOC[C@H]4O[C@H](c5ccccc5)C=C[C@@H]4Oc4ccc(OC)cc4)[C@@H]3CC[C@H]2C1=O` ; measured composite z-score: 1.05

Measured composite z-score, `Cc1cc2c(c(=O)o1)[C@@H](O)[C@H]1O[C@H]1C2=O` : 0.56

Notebook: CC(CCN1CCCc2nc(C)c(C)cc21)=NOC(C)CN1CCCCc2nc(C)c(C)cc21 (stereo unspecified) , composite z-score read as 0.714

composite z-score reported for this compound `CC(C)CON=C1C[C@@H](O)[C@@H](O)[C@@H]2[C@@H]3C(=O)N(Cc4ccc5c(c4)OCO5)C(=O)[C@@H]3CC[C@H]12` : 0.411

response.value for `CC(C)CON=C1C[C@@H](O)[C@@H](O)[C@@H]2[C@@H]3C(=O)N(C4CCCCC4)C(=O)[C@@H]3CC[C@@H]12` (field: composite z-score) = 0.673

The value of composite z-score measured for the compound O=C1CCCC=C1C(O)CCCCBr (stereo unspecified) turned out to be 2.09

Value of composite z-score reported for the compound `C#CCCCON=C1[C@H]2CCn3c(=O)n(C)c(=O)n3[C@H]2[C@H](O)[C@@H]2O[C@H]12` is 0.0727

Noted for `CC(CCN1CCCc2nc(C)c(C)cc21)=NO[C@@H](C)c1cc(-c2c(C)cc(C)cc2C)no1` : its composite z-score reads 0.494

Lab note: `CO[C@@H]1COC(=O)[C@@H](C)NC(=O)CC=C[C@@H](C)[C@H](NS(=O)(=O)c2ccc(C)cc2)COC(=O)[C@H](C)NC(=O)CC=C[C@H]1C` gave composite z-score of -0.744

Recorded composite z-score (compound O=C1CCCC=C1C(O)CCOC(c1ccccc1)(c1ccccc1)c1ccccc1 (stereo unspecified) ): -0.28

get_value(item= `CCOC(=O)NN=C1C[C@@H](O)[C@@H](O)[C@@H]2[C@@H]3C(=O)N(c4cccc(Oc5ccccc5)c4)C(=O)[C@@H]3CC[C@@H]12` , readout=composite z-score) returns 1.32

Looking up `O=C1[C@H]2[C@H]3[C@H](O)[C@H](O)CC(=NO[C@@H]4O[C@H](CO)[C@@H](O)[C@H](O)[C@H]4O)[C@H]3CC[C@H]2C(=O)N1c1cccc(Oc2ccccc2)c1` , I see its composite z-score listed as -0.0791

// sample COC(=O)[C@H](C)NC(=O)CCC1CC(OC(=O)NCc2cccc3ccccc23)CC2(CCCC(COC(=O)NCC(c3ccccc3)c3ccccc3)O2)O1 (stereo partly specified) , its composite z-score was 0.0226
